# studyTarget: 5HT6 human recombinant receptor (Homo sapiens, UniProt P50406)
# Construct: purchased Receptor Biology; host or cells: HEK-293 cell membranes
# Sequence (P50406 whole entry): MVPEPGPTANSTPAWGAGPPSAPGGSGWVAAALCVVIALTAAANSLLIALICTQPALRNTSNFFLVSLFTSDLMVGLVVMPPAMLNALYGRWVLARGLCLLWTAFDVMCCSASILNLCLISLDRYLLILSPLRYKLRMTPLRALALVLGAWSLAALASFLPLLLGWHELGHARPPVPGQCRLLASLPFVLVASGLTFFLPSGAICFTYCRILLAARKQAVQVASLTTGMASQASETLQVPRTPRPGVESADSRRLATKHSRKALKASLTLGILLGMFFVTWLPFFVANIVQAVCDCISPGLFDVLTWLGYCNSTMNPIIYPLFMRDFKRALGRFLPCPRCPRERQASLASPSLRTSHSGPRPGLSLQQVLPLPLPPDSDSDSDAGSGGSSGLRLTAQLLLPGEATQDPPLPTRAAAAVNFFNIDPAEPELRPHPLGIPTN
# procedureDetails: Binding test to 5-HT6 receptors ([3H]-LSD displacement, HEK-293 cell membranes)
# conditionsUsed: compound concentration 10^−6 M; radioligand [3H]-LSD 2.7 nM; 60 min, 37° C.
propertyLabel: inhibition at 1 µM (%)
Return type: number; implicit unit %.

{"columns": ["structureString", "studyTarget", "unitText", "inhibition at 1 µM"],
 "data": [
  ["CC1=C(CCN2CCCC2)c2cccc(NS(=O)(=O)c3ccc4ccccc4c3)c2C1", "5HT6 human recombinant receptor (Homo sapiens, UniProt P50406)", "%", 72]
]}

inhibition at 1 µM measured on CC1=C(CCN2CCCC2)c2cc(NS(=O)(=O)c3sc4ccc(Cl)cc4c3C)ccc2C1 = 100

Value of measured inhibition at 1 µM for the entry CC1=C(CCO)c2cc(NS(=O)(=O)c3ccc4ccccc4c3)ccc2C1 : 45

###

# studyTarget: 5HT6 human recombinant receptor (Homo sapiens, UniProt P50406)
# procedureDetails: Binding test to 5-HT6 receptors ([3H]-LSD displacement, HEK-293 cell membranes)
# conditionsUsed: inhibition constant by non-linear regression (EBDA/LIGAND); [3H]-LSD 2.7 nM
pKi: −log10 of the molar value.
Response key: y means pKi >= 7; n means pKi < 7.

{"columns": ["compound", "labelValue"],
 "data": [
  ["CC1=C(CCN2CCCC2)c2cc(NS(=O)(=O)c3sc4ccc(Cl)cc4c3C)ccc2C1 [Example 38]", "y"]
]}

Has CC1=C(CCN(C)C)c2cc(NS(=O)(=O)c3ccc4ccccc4c3)ccc2C1 [Example 34] a recorded pKi greater than or equal to 7?
y

Is pKi at least 7? Consider O=S(=O)(Nc1ccc2c(c1)C(CCN1CCCC1)=CC2)c1ccc2ccccc2c1 [Example 37]
y

Hi, just wondering whether CC1=C(CCN(C)C)c2cc(NS(=O)(=O)c3c(Cl)nc4sccn34)ccc2C1 [Example 19] shows pKi of 7 or higher.
y

Evaluate CC1=C(CCN(C)C)c2cc(NS(=O)(=O)c3ccc4ccccc4c3)ccc2/C1=C\c1ccccc1 [Example 33] : pKi at minimum 7?
n

###

# studyTarget: 5HT6 human recombinant receptor (Homo sapiens, UniProt P50406)
# Construct: purchased Receptor Biology; host or cells: HEK-293 cell membranes
# procedureDetails: Binding test to 5-HT6 receptors ([3H]-LSD displacement, HEK-293 cell membranes)
# conditionsUsed: compound concentration 10^−8 M; radioligand [3H]-LSD 2.7 nM; 60 min, 37° C.; read-out: % Inhibition 10^−8 M
propertyLabel: inhibition at 0.01 µM (%)
Kindly provide the numeric value in % only, without the unit symbol.

{"columns": ["molecule", "inhibition at 0.01 µM (%)"],
 "data": [
  ["CC1=C(C2CCN(C)C2)c2cc(NS(=O)(=O)c3c(Cl)nc4sccn34)ccc2C1 (centres unmarked)", 7.4],
  ["CN(C)CCC1=CC(C)(C)c2ccc(NS(=O)(=O)c3c(Cl)nc4sccn34)cc21", 9.4],
  ["CC1=C(CCN(C)C)c2cc(NS(=O)(=O)c3ccc4ccccc4c3)ccc2C1", 18],
  ["CC1=C(C2CCCN(C)C2)c2cc(NS(=O)(=O)c3c(Cl)nc4sccn34)ccc2C1 (centres unmarked)", 77.6],
  ["Cc1c(S(=O)(=O)Nc2ccc3c(c2)C(CCN(C)C)=CC3(C)C)sc2ccc(Cl)cc12", -7.5]
]}

Looking up CC1=C(CCN(C)C)c2cc(NS(=O)(=O)c3csc4ccccc34)ccc2C1 , I see its inhibition at 0.01 µM listed as 53

Measured inhibition at 0.01 µM, CC1=C(CCN(C)C)c2cc(NS(=O)(=O)c3sc4ccc(Cl)cc4c3C)ccc2C1 : 13

Noted for CC1=C(CCN(C)C)c2cc(NS(=O)(=O)c3cccc4ccccc34)ccc2C1 : its inhibition at 0.01 µM reads 32
